assay: refractive index (Na D-line) (dimensionless); conditions: 308.15 K; 100.7 kPa; Liquid; Standard Abbe refractometry
Consider the following compounds and their measured refractive index readings.
// return just the number, without any unit appended

# count of solved cases: 3
>>> print(df.to_string())
                                   compound  test_value
0                 C1CCOC1 [tetrahydrofuran]     1.39885
1  CCCCCCn1cc[n+](C)c1.F[P-](F)(F)(F)(F)F [1-hexyl-3-methylimidazolium hexafluorophosphate]     1.41564
2  CCCCCCCC[n+]1ccn(C)c1.F[P-](F)(F)(F)(F)F [1-octyl-3-methylimidazolium hexafluorophosphate]     1.42029

Just so you know, measured refractive index for CCCCn1cc[n+](C)c1.F[P-](F)(F)(F)(F)F [1-butyl-3-methylimidazolium hexafluorophosphate] came out at 1.40693
